JAK3/JAK2 values, listed per item
Molecular target: UniProt:O60674
Sequence (O60674 whole entry): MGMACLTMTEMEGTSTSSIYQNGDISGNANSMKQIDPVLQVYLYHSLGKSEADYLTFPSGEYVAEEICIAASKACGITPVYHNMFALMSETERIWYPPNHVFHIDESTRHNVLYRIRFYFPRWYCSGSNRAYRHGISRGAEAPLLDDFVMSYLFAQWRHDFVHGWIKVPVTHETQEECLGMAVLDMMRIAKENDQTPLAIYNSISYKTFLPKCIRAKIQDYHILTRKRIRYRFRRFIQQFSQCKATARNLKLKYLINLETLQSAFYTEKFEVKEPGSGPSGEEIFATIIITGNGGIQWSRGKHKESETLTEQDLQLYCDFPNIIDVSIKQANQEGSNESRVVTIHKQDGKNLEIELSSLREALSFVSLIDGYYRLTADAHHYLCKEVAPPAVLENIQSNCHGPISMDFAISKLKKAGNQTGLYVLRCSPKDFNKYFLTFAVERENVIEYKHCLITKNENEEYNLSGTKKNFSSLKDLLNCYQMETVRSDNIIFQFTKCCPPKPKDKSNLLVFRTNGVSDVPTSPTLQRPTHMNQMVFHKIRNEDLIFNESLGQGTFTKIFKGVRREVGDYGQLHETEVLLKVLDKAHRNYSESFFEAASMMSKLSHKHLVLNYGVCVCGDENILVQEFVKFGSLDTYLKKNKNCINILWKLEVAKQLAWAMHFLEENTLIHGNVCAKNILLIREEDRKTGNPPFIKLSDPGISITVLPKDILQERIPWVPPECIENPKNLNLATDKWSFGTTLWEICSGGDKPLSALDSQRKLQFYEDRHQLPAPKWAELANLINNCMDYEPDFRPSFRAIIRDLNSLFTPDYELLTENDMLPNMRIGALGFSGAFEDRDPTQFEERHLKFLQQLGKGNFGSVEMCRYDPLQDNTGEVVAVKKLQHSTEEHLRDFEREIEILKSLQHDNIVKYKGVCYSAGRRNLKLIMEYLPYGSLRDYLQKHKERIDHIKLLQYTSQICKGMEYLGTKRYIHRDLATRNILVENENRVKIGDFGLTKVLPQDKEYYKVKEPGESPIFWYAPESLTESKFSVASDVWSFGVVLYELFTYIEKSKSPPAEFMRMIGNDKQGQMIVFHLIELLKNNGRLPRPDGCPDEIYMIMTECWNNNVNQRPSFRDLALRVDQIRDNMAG
Test: Kinase activity test on JAK2 (Caliper EZ Reader conversion rate)
Conditions: ratio of IC50 values, selectivity for JAK2 over JAK3
Answer with a bare number; do not write a unit.

stdin: Form field: JAK3/JAK2 recorded for CC(C)(C)NS(=O)(=O)c1cccc(N2CCc3cnc(Nc4ccc(CC5CCOCC5)cc4)nc32)c1 [Compound I-10] with UniProt:O60674 (enter value)
stdout: 1974

stdin: Queued: CC(C)(C)NS(=O)(=O)c1cccc(N2CCc3cnc(Nc4ccc(OCCN5CCOCC5)cc4)nc32)c1 [Compound I-3]
stdout: 877

stdin: Consider next the molecule CC(C)(C)NS(=O)(=O)c1cccc(N2CCc3cnc(Nc4ccc(OCCN5CCCCC5)cc4)nc32)c1 [Compound I-5] in the same way.
stdout: 1118

stdin: // same read-out, input: CC(C)(C)NS(=O)(=O)c1cccc(N2CCc3cnc(Nc4ccc(OCCN5CCSCC5)cc4)nc32)c1 [Compound I-14]
stdout: 907

stdin: Item: CC(C)(C)NS(=O)(=O)c1cccc(N2CCc3cnc(Nc4ccc(CN5CCOCC5)cc4)nc32)c1 [Compound I-11]
stdout: 1225

stdin: Then what about the molecule CCN1CCN(Cc2ccc(Nc3ncc4c(n3)N(c3cccc(S(=O)(=O)NC(C)(C)C)c3)CC4)cc2)CC1 [Compound I-8] ?
stdout: 833
